Species: Rattus norvegicus
ASSAY_TEXT: Rate of metabolism in liver microsomes (BNF treated rats)
Assay type: ADME
MEASUREMENT_NAME: RPF

Solved cases below.
[[record]]
smi = "COc1c([C@@H](CC(C)=O)c2ccc(O)cc2)c(=O)oc2ccccc12"
test_result = "47.8 pM nM-1"

[[record]]
smi = "CO[C@]1(C)C[C@H](c2ccc(O)cc2)c2c(c3ccccc3oc2=O)O1"
test_result = "52 pM nM-1"

[[record]]
smi = "CO[C@]1(C)C[C@@H](c2ccc(O)cc2)c2c(c3ccccc3oc2=O)O1"
test_result = "73.5 pM nM-1"

[[record]]
smi = "CC(=O)C[C@H](c1ccccc1)c1c(O)c2cc(O)ccc2oc1=O"
test_result = "102 pmol/min/nmol"


I have this molecule here, CO[C@@]1(C)C[C@H](c2ccccc2)c2c(c3cccc(O)c3oc2=O)O1 , and I need its recorded RPF. 15.1 pM nM-1

====

Organism: Rattus norvegicus
ASSAY_TEXT: Rate of metabolism in liver microsomes (BNF treated rats)
Format: ADME
Entries and their measured RPF follow.

[[record]]
compound = "CO[C@]1(C)C[C@@H](c2ccccc2)c2c(c3ccc(O)cc3oc2=O)O1"
test_result = "14.9 pM nM-1"

[[record]]
compound = "CO[C@]1(C)C[C@H](c2ccccc2)c2c(c3cccc(O)c3oc2=O)O1"
test_result = "14.9 pM nM-1"

[[record]]
compound = "COC1(C)C[C@@H](c2ccccc2)c2c(c3ccc(O)cc3oc2=O)O1 (stereo not given in full)"
test_result = "13.9 pM nM-1"

[[record]]
compound = "CO[C@@]1(C)C[C@@H](c2ccccc2)c2c(c3cccc(O)c3oc2=O)O1"
test_result = "34.6 pM nM-1"


# input for lookup
I have this compound here, COc1c([C@H](CC(C)=O)c2ccccc2)c(=O)oc2cc(O)ccc12 , and I need its recorded RPF. 8.3 pM nM-1

====

Species on record: Rattus norvegicus
ASSAY_TEXT: Rate of metabolism in liver microsomes (BNF treated rats)
Format: ADME
MEASUREMENT_NAME: RPF

[[record]]
compound = "CC(=O)C[C@@H](c1ccccc1)c1c(O)c2cc(O)ccc2oc1=O"
measurement_name = "RPF"
test_result = "37.1 pmol/min/nmol"

[[record]]
compound = "COC1(C)C[C@H](c2ccc(O)cc2)c2c(c3ccccc3oc2=O)O1 (some centres undefined)"
measurement_name = "RPF"
test_result = "76.2 pM nM-1"

[[record]]
compound = "CO[C@]1(C)C[C@H](c2ccccc2)c2c(c3ccc(O)cc3oc2=O)O1"
measurement_name = "RPF"
test_result = "12.8 pM nM-1"

[[record]]
compound = "COC1(C)C[C@H](c2ccccc2)c2c(c3ccc(O)cc3oc2=O)O1 (some centres undefined)"
measurement_name = "RPF"
test_result = "19.3 pM nM-1"

[[record]]
compound = "COC1(C)C[C@@H](c2ccc(O)cc2)c2c(c3ccccc3oc2=O)O1 (some centres undefined)"
measurement_name = "RPF"
test_result = "64.8 pM nM-1"

[[record]]
compound = "CC(=O)C[C@@H](c1ccccc1)c1c(O)c2ccc(O)cc2oc1=O"
measurement_name = "RPF"
test_result = "195 pmol/min/nmol"


I have this compound here, CO[C@]1(C)C[C@@H](c2ccccc2)c2c(c3cc(O)ccc3oc2=O)O1 , and I need its recorded RPF. 24.1 pM nM-1
